Molecular target: human mAChR M4 (Homo sapiens)
Construct: expressed in transfected cells; host or cells: CHO-K1 (American Type Culture Collection), stably expressing hM4 and Gqi5
Sequence (P08173 1-479): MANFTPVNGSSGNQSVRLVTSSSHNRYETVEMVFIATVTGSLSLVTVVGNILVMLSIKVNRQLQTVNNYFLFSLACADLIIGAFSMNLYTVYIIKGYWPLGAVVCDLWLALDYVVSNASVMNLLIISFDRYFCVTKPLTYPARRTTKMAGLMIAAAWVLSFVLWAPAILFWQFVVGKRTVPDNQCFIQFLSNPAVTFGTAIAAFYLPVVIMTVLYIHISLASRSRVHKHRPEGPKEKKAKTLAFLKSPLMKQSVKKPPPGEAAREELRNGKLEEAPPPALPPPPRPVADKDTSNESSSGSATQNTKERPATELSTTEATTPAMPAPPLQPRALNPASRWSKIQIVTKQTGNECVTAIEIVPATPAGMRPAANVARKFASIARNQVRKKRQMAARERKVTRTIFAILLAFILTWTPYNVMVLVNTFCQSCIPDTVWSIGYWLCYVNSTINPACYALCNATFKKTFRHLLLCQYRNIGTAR
Experiment: mAChR M4 cell-based functional assay: calcium mobilization (Fluo-4, FDSS), potentiation of EC20 acetylcholine response in hM4-Gqi5 CHO-K1 cells
Conditions: CHO-K1, % ACh maximum at 30 μM; human M4
Measure: Emax at 30 µM (%)
Please state the figure in %; there is no need to write the unit.

# example entries with known answers
Q: What does the data say about its Emax at 30 µM? Entry: Cc1cc2nccc(=O)n2nc1N1CCc2ncc(-c3ccc(OC(F)F)nc3)cc2C1
Ans: 71

Q: How about Cc1c(C2CC2)c(N2CCc3ncc(C(F)(F)F)cc3C2)nn2c(=O)ccnc12 ?
Ans: 61

Q: How about Cc1c(N2CCc3ncc(-c4cnn(-c5ccccc5F)c4)cc3C2)nn2c(=O)ccnc2c1C ?
Ans: 71

# evaluate next
Q: What does the data say about its Emax at 30 µM? Entry: Cc1cc(=O)n2nc(N3CCc4ncc(-c5cc(F)cc(F)c5F)cc4C3)c(C)c(C)c2n1
Ans: 75

----------
biological target: human mAChR M4 (Homo sapiens, UniProt P08173); assay: mAChR M4 cell-based functional assay: calcium mobilization (Fluo-4, FDSS), potentiation of EC20 acetylcholine response in hM4-Gqi5 CHO-K1 cells; conditions: potentiation of EC20 acetylcholine response, calcium mobilization, human M4
Readings of pEC50 for the listed compounds
Just so you know, pEC50 here is -log10 of the concentration in molar units; reply with that number alone.

# example entries with known answers
Q: Notebook entry, human mAChR M4 (Homo sapiens, UniProt P08173) assay: pEC50 of Cc1cc(C(F)F)ncc1-c1cnc2c(c1)CN(c1nn3c(=O)ccnc3cc1C)CC2 = ?
Ans: 6.56

Q: How about COCc1cc(=O)n2nc(N3CCc4ncc(-c5cccnc5)cc4C3)c(C)cc2n1 ?
Ans: 6.49

Q: How about COCc1cc(=O)n2nc(N3CCc4ncc(-c5ccccc5OC(F)(F)F)cc4C3)c(C)cc2n1 ?
Ans: 5.51

Q: How about Cc1cc2nccc(=O)n2nc1N1CCc2ncc(N3CCOC(c4ccc(F)cc4)C3)cc2C1 (centres unmarked) ?
Ans: 6.40

# evaluate next
Q: Notebook entry, human mAChR M4 (Homo sapiens, UniProt P08173) assay: pEC50 of Cc1cc(=O)n2nc(N3CCc4ncc(-c5cccc(F)c5)cc4C3)c(C)c(C)c2n1 = ?
Ans: 6.38

----------
target: human mAChR M4 (Homo sapiens); construct: expressed in transfected cells; host or cells: CHO-K1 (American Type Culture Collection), stably expressing hM4 and Gqi5; experiment: mAChR M4 cell-based functional assay: calcium mobilization (Fluo-4, FDSS), potentiation of EC20 acetylcholine response in hM4-Gqi5 CHO-K1 cells; details: CHO-K1, % ACh maximum at 30 μM; human M4
Readings of Emax at 30 µM for the listed compounds
Please state the figure in %; there is no need to write the unit.

Q: Notebook entry, human mAChR M4 (Homo sapiens) assay: Emax at 30 µM of Cc1cc(=O)n2nc(N3CCc4ncc(N5CCO[C@H](C)C5)cc4C3)c(C)cc2n1 = ?
Ans: 92

Q: How about Cc1cc2nccc(=O)n2nc1N1CCc2ncc(Nc3ccnc(F)c3)cc2C1 ?
Ans: 92

Q: How about Cc1cc2n(n1)CCCN2c1cnc2c(c1)CN(c1nn3c(=O)ccnc3cc1C)CC2 ?
Ans: 97

Others:
Q: Notebook entry, human mAChR M4 (Homo sapiens) assay: Emax at 30 µM of Cc1cc(C(F)F)ncc1-c1cnc2c(c1)CN(c1nn3c(=O)ccnc3cc1C)CC2 = ?
Ans: 75

----------
molecular target: human mAChR M4 (Homo sapiens, UniProt P08173); construct: expressed in transfected cells; host or cells: CHO-K1 (American Type Culture Collection), stably expressing hM4 and Gqi5; test: mAChR M4 cell-based functional assay: calcium mobilization (Fluo-4, FDSS), potentiation of EC20 acetylcholine response in hM4-Gqi5 CHO-K1 cells; conditions: CHO-K1, % ACh maximum at 30 μM; human M4
Response field class: enum, chosen by comparing Emax at 30 µM against bucket A = under 80%, bucket B = from 80% up to 90%, bucket C = 90% and over

Some solved cases for reference:
Q: Band for the recorded Emax at 30 µM of Cc1cncc(Nc2cnc3c(c2)CN(c2nn4c(=O)ccnc4cc2C)CC3)c1 ?
Ans: bucket C

Q: How about Cc1cc2nccc(=O)n2nc1N1CCc2ncc(-c3ccc(=O)n(C)c3)cc2C1 ?
Ans: bucket C

Q: How about Cc1cc(=O)n2nc(N3CCc4ncc(-c5cncnc5)cc4C3)c(C)cc2n1 ?
Ans: bucket A

Q: How about COCc1cc(=O)n2nc(N3CCc4ncc(-c5cnn6c5COCC6)cc4C3)c(C)c(C)c2n1 ?
Ans: bucket C

Q: How about Cc1cnccc1Nc1cnc2c(c1)CN(c1nn3c(=O)ccnc3cc1C)CC2 ?
Ans: bucket B

Q: How about Cc1ncc(-c2cnc3c(c2)CN(c2nn4c(=O)ccnc4cc2C)CC3)s1 ?
Ans: bucket B

Q: How about COc1ccsc1-c1cnc2c(c1)CN(c1nn3c(=O)cc(C)nc3c(C)c1C)CC2 ?
Ans: bucket C

Q: How about COc1cncc(Nc2cnc3c(c2)CN(c2nn4c(=O)ccnc4cc2C)CC3)c1 ?
Ans: bucket C

Q: How about Cc1cccnc1-c1cnc2c(c1)CN(c1nn3c(=O)ccnc3cc1C)CC2 ?
Ans: bucket A

Q: How about Cc1c(N2CCc3ncc(-c4cnn(C(F)F)c4)cc3C2)nn2c(=O)cc(C(F)F)nc2c1C ?
Ans: bucket B

Others:
Q: Band for the recorded Emax at 30 µM of Cc1cc(=O)n2nc(N3CCc4ncc(-c5ccccc5C(C)C)cc4C3)c(C)c(C)c2n1 ?
Ans: bucket A

Q: How about Cc1cc(=O)n2nc(N3CCc4ncc(-c5ccc(N(C)C)nc5)cc4C3)c(C)cc2n1 ?
Ans: bucket A

Q: How about Cc1cc2nccc(=O)n2nc1N1CCc2ncc(N3CCOC(c4ccncc4)C3)cc2C1 (stereo not shown) ?
Ans: bucket A

Q: How about Cc1cc2nccc(=O)n2nc1N1CCc2ncc(-c3cn(C)nc3C(F)F)cc2C1 ?
Ans: bucket B

Q: How about Cc1cc2nccc(=O)n2nc1N1CCc2ncc(-c3ccccc3C3(C#N)CC3)cc2C1 ?
Ans: bucket A

Q: How about COCc1cc(=O)n2nc(N3CCc4ncc(-c5cnn(C6CC6)c5)cc4C3)c(C)cc2n1 ?
Ans: bucket A

Q: How about Cc1cc(=O)n2nc(N3CCc4ncc(-c5cnn(C(F)F)c5)cc4C3)c(C)cc2n1 ?
Ans: bucket B

Q: How about Cc1cc(=O)n2nc(N3CCc4ncc(-c5ccc(CO)s5)cc4C3)c(C)cc2n1 ?
Ans: bucket C

----------
Readings of Emax at 30 µM for the listed compounds
target: human mAChR M4 (Homo sapiens); construct: expressed in transfected cells; host or cells: CHO-K1 (American Type Culture Collection), stably expressing hM4 and Gqi5; test: mAChR M4 cell-based functional assay: calcium mobilization (Fluo-4, FDSS), potentiation of EC20 acetylcholine response in hM4-Gqi5 CHO-K1 cells; conditions: CHO-K1, % ACh maximum at 30 μM; human M4
Please state the figure in %; there is no need to write the unit.

# example entries with known answers
Q: What does the data say about its Emax at 30 µM? Entry: Cc1c(N2CCc3ncc(-c4cnn(C5CC5)c4)cc3C2)nn2c(=O)ccnc2c1C
Ans: 80

Q: How about Cc1cc(=O)n2nc(N3CCc4ncc(-c5ccc6nccn6c5)cc4C3)c(C)cc2n1 ?
Ans: 70

Q: How about Cc1cc(=O)n2nc(N3CCc4ncc(-c5c(C)nn(C)c5C)cc4C3)c(C)cc2n1 ?
Ans: 92

Q: How about COCc1cc(=O)n2nc(N3CCc4ncc(-c5cc(F)ccc5C)cc4C3)c(C)c(C)c2n1 ?
Ans: 83

Q: How about Cc1cc(=O)n2nc(N3CCc4ncc(Nc5ccnn5C)cc4C3)c(C)cc2n1 ?
Ans: 88

Q: How about Cc1c(N2CCc3ncc(-c4ccccc4C(F)(F)F)cc3C2)nn2c(=O)ccnc2c1C ?
Ans: 81

# evaluate next
Q: What does the data say about its Emax at 30 µM? Entry: Cc1c(N2CCc3ncc(C(F)(F)F)cc3C2)nn2c(=O)cc(C(F)(F)F)nc2c1C
Ans: 86
